Experiment: qHTS assay to identify small molecule HDAC inhibitors (AID 1259364);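 also: wild-type HCT-116 cells with endogenous class I/II HDAC activity; top concentration of the series differs between compounds; % is scaled to controls: 0 for no effect and ±100 for the full control effect; nearly all actives have a fitted effect of over 45% in size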
Conditions: HCT-116 HDAC-Glo I/II luminescence, 2 h; series mostly up to 92.4 µM
Description: U.S. Tox21 Program National Center for Advancing Translational Sciences [NCATS] NIH Chemical Genomics Center [NCGC] U.S. Environmental Protection Agency [EPA] National Institutes of Environmental Health Sciences [NIEHS] National Toxicology Program [NTP] U.S. Food and Drug Administration [FDA] Tox21 Assay Overview: Histone deacetylases (HDACs) are a group of epigenetic enzymes that regulate gene expression by histone deacetylation. […]
Records with an inconclusive call do not appear. Active and inactive are the calls of the source. Calls follow the shape of the dose curve; as a rule, active = well fitted inhibition curve with a large enough effect in the repeat runs; inconclusive = weak or mixed curves; inactive = flat fitted curve, though single readings scatter.
Attribute: activity change, negative = inhibition
READOUT TYPE: activity change, negative = inhibition

molecule="NC(Cc1ccc(F)cc1)C(=O)O (stereo not drawn)" result="-2.41% [at 8.39 µM] (inactive)"
molecule=C[C@@H]1CN(c2c(F)c(F)c3c(=O)c(C(=O)O)cn(C4CC4)c3c2F)C[C@H](C)N1 result="-5.53% [at 19 µM] (inactive)"
molecule=O=C(O)CN(CCN(CC(=O)O)CC(=O)O)CCN(CC(=O)O)CC(=O)O result="3.25% [at 19 µM] (inactive)"

###

Molecular target: Cytochrome P450 2D6 (Homo sapiens)
Test: Cytochrome P450 Family 2 Subfamily D Member 6 (CYP2D6) small molecule antagonists: luciferase reporter qHTS assay (AID 1671196); also: nearly all actives have a fitted effect of over 50% in size
Conditions: P450-Glo CYP2D6 enzyme assay, luciferin luminescence, 1 h; series mostly up to 115 µM
Inconclusive results are not listed. Active and inactive are the calls of the source. Calls follow the shape of the dose curve; as a rule, active = well fitted inhibition curve with a large enough effect in the repeat runs; inconclusive = weak or mixed curves; inactive = no such curve, though single readings can be large or run the other way.
Classes used: y = active, n = inactive

compound=O=C(Cl)c1cccc([N+](=O)[O-])c1 cat=n
compound=O=C1Nc2ccc([N+](=O)[O-])cc2C1=O cat=y
compound="CCOC(=O)COc1ccc2c(c1)CC(NCC(O)c1cccc(Cl)c1)CC2 (stereo not given)" cat=y
compound=CN1CCN(C2=Nc3cc(F)ccc3Cc3ccccc32)CC1 cat=y
compound=Cc1cccc(C)c1NC(=O)CN1CCCCCC1 cat=y
compound=COc1nc(C)nc(NC(=O)NS(=O)(=O)c2ccccc2OCCCl)n1 cat=n
compound="CC(C)(C)C1CCCCC1=O (stereo not given)" cat=n
compound=CCOc1ccc(OCC)c(Cl)c1 cat=n
compound=CC/C=C\CCOC(=O)C(C)C cat=n
compound=CN(C)C(=O)NC1(c2ccccc2)CCN(CCC[C@]2(c3ccc(Cl)c(Cl)c3)CCCN(C(=O)c3ccccc3)C2)CC1 cat=y
compound=CCCOCCC cat=n
compound=CC[C@H]1CC[C@H](NCc2cc3c(cc2OC)[C@H]2C[C@H]2C(=O)N3C)[C@H](c2ccccc2)N1 cat=y
compound=COc1ccc(Nc2ccc(OC)cc2)cc1 cat=y
compound=Cc1cc(NS(=O)(=O)c2ccc(N)cc2)nc(C)n1 cat=n
compound=CCOC(=O)c1cc(=O)c2c(OCC(COc3cccc4oc(C(=O)OCC)cc(=O)c34)OC(=O)[C@@H](N)CCCCN)cccc2o1 cat=n

###

Assay: A CellTox Green Cytotoxicity Assay to monitor cytotoxicity in HEK293 cells - 16 hour (AID 1224888); also: % is scaled to controls: 0 for no effect and ±100 for the full control effect; nearly all actives have a fitted effect of over 35% in size
Conditions: CellTox Green fluorescence; series mostly up to 76.8 µM
Inconclusive results are not listed. The source made the active and inactive calls. Calls follow the shape of the dose curve; as a rule, active = well fitted activation curve with a large enough effect in the repeat runs; inconclusive = weak or mixed curves; inactive = flat fitted curve, though single readings scatter.
READOUT TYPE: activity change

chemical_string=Cc1ccc(C(C)C)cc1O result=inactive
chemical_string=CCCCCCCOC(=O)CCC result=inactive
chemical_string=CCCCNc1cc(C(=O)O)cc(S(N)(=O)=O)c1Oc1ccccc1 result=inactive
chemical_string=CCCCNC(=S)NCCCC result=inactive
chemical_string=CC(C)C1=CC2=CC[C@@H]3[C@](C)(CCC[C@@]3(C)C(=O)O)[C@H]2CC1 result=inactive
chemical_string=O=C(O)[C@@H](O)[C@H](O)[C@H](O)[C@@H](O)C(=O)O result=inactive
